- tested_system: baNadD (Bacillus anthracis)
- Sequence (C3L5T6 whole entry, looked up): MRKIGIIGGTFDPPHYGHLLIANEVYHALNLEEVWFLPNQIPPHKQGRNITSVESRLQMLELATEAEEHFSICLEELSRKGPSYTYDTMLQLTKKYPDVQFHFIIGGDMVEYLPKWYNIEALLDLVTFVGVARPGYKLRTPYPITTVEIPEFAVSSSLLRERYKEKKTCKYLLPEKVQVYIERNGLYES
- test_name: biochemical
- Format: biochemical
quantity_measured: […]. anthracis (%)

{"molecule": "N=C(N)NNC(=S)Nc1ccc(Cl)cc1 [compound 013]", "quantity_measured": "[…]. anthracis", "measured_number": 0}
{"molecule": "CCn1c(CNc2ccc(F)cc2)nnc1SCC(N)=O [compound 298]", "quantity_measured": "[…]. anthracis", "measured_number": 0}
{"molecule": "O=C(O)c1cccc(CSc2ncccn2)c1 [compound 180]", "quantity_measured": "[…]. anthracis", "measured_number": 15}
{"molecule": "NNC(=O)CNC(=O)CNS(=O)(=O)c1ccc(Cl)cc1 [compound 250]", "quantity_measured": "[…]. anthracis", "measured_number": 0}
{"molecule": "Nc1nnc(CCSc2cc(Cl)ccc2Cl)s1 [compound 018]", "quantity_measured": "[…]. anthracis", "measured_number": 0}
{"molecule": "NS(=O)(=O)c1ccc(NC(=O)CSc2ncn(-c3ccccc3)n2)cc1 [compound 205]", "quantity_measured": "[…]. anthracis", "measured_number": 40}
{"molecule": "O=C(CCN1C(=O)c2ccccc2C1=O)NCc1ccncc1 [compound 302]", "quantity_measured": "[…]. anthracis", "measured_number": 0}
{"molecule": "O=c1[nH]c(SCc2nc3ccccc3[nH]2)nc2ccccc12 [compound 026]", "quantity_measured": "[…]. anthracis", "measured_number": 0}
{"molecule": "CSc1sc(C(=O)O)c(I)c1S(=O)(=O)C(C)C [compound 158]", "quantity_measured": "[…]. anthracis", "measured_number": 36}
{"molecule": "Nc1nnc(SCc2ccccc2Cl)s1 [compound 104]", "quantity_measured": "[…]. anthracis", "measured_number": 29}
{"molecule": "CCOc1cc(/C=N/O)cc(I)c1O [compound 045]", "quantity_measured": "[…]. anthracis", "measured_number": 0}
{"molecule": "Brc1ccc2ncnc(NCc3cccnc3)c2c1 [compound 225]", "quantity_measured": "[…]. anthracis", "measured_number": 55}
{"molecule": "O=S(=O)(NCCCc1ccccc1)c1cccc2nsnc12 [compound 142]", "quantity_measured": "[…]. anthracis", "measured_number": 0}
{"molecule": "O=C(O)c1cccc(NCN2C(=O)c3ccccc3C2=O)c1 [compound 027]", "quantity_measured": "[…]. anthracis", "measured_number": 0}
{"molecule": "NS(=O)(=O)c1ccc(NC(=O)CSc2ccc3ccccc3n2)cc1 [compound 073]", "quantity_measured": "[…]. anthracis", "measured_number": 0}
{"molecule": "Nc1nnc(-c2cc(-c3ccc(Cl)cc3)on2)o1 [compound 183]", "quantity_measured": "[…]. anthracis", "measured_number": 7}
{"molecule": "CSc1ccc(CNc2ccc(S(N)(=O)=O)cc2)cc1 [compound 150]", "quantity_measured": "[…]. anthracis", "measured_number": 0}
{"molecule": "Cc1nnc(SCC(=O)Nc2ccc(Cl)cn2)s1 [compound 088]", "quantity_measured": "[…]. anthracis", "measured_number": 0}
{"molecule": "O=C(O)CC(NC(=O)OCc1ccccc1)c1ccccc1 (centres unmarked) [compound 261]", "quantity_measured": "[…]. anthracis", "measured_number": 24}
{"molecule": "O=C(O)c1ccc(-c2ccc(C(=O)O)c(C(=O)O)c2)cc1C(=O)O [compound 275]", "quantity_measured": "[…]. anthracis", "measured_number": 0}
{"molecule": "O=C(O)C(Cc1ccccc1)NS(=O)(=O)c1ccc2c(c1)OCCO2 (centres unmarked) [compound 246]", "quantity_measured": "[…]. anthracis", "measured_number": 0}
{"molecule": "CC(=O)Nc1ccc(S(=O)(=O)Nc2ccc(Cl)cc2Cl)cc1 [compound 008]", "quantity_measured": "[…]. anthracis", "measured_number": 0}
{"molecule": "O=[N+]([O-])c1ccc2[nH]c(CCc3nc4cc([N+](=O)[O-])ccc4[nH]3)nc2c1 [compound 252]", "quantity_measured": "[…]. anthracis", "measured_number": 0}
{"molecule": "O=C(O)c1cc([N+](=O)[O-])ccc1Sc1cccs1 [compound 005]", "quantity_measured": "[…]. anthracis", "measured_number": 44}
{"molecule": "O=C(O)c1nonc1NCn1cnnn1 [compound 116]", "quantity_measured": "[…]. anthracis", "measured_number": 5}
{"molecule": "CC(=O)Nc1ccc(NC(=O)CSc2nccc(O)n2)cc1 [compound 128]", "quantity_measured": "[…]. anthracis", "measured_number": 0}
{"molecule": "N#CCc1ccc(NC(=O)/C=C/c2ccc([N+](=O)[O-])o2)cc1 [compound 233]", "quantity_measured": "[…]. anthracis", "measured_number": 8}
{"molecule": "O=C(O)c1ccc(CSCc2ccccc2)o1 [compound 270]", "quantity_measured": "[…]. anthracis", "measured_number": 21}
{"molecule": "CC(=O)O/C(=C\\c1cn(C(C)=O)c2ccccc12)C(=O)O [compound 291]", "quantity_measured": "[…]. anthracis", "measured_number": 0}
{"molecule": "O=S(=O)(NCCc1ccccc1)c1ccc(Br)s1 [compound 307]", "quantity_measured": "[…]. anthracis", "measured_number": 0}
{"molecule": "O=C(O)c1cc(NS(=O)(=O)c2cccc3nsnc23)cc(C(=O)O)c1 [compound 153]", "quantity_measured": "[…]. anthracis", "measured_number": 0}
{"molecule": "Cc1nnc(SCC(=O)Nc2ccc(Cl)cn2)[nH]c1=O [compound 146]", "quantity_measured": "[…]. anthracis", "measured_number": 11}
{"molecule": "O=C(O)CSc1nc(=O)cc(-c2ccccc2)[nH]1 [compound 176]", "quantity_measured": "[…]. anthracis", "measured_number": 0}
{"molecule": "Nc1nc(-c2ccc(NC(=O)c3ccc(Cl)cc3)cc2)cs1 [compound 022]", "quantity_measured": "[…]. anthracis", "measured_number": 31}
{"molecule": "Nc1ccc(NC(=O)c2cc(Cl)ccc2O)c(Cl)c1 [compound 043]", "quantity_measured": "[…]. anthracis", "measured_number": 2}
{"molecule": "O=C(O)c1ccc(Nc2nc(-c3ccc(Cl)cc3)cs2)cc1 [compound 030]", "quantity_measured": "[…]. anthracis", "measured_number": 28}
{"molecule": "Cc1ccc(NC(=S)NC(=O)c2ccc(F)cc2)nc1 [compound 105]", "quantity_measured": "[…]. anthracis", "measured_number": 51}
{"molecule": "NS(=O)(=O)c1ccc(NC(=S)NCc2ccccc2)cc1 [compound 085]", "quantity_measured": "[…]. anthracis", "measured_number": 0}
{"molecule": "O=C(CSc1nc2ccccc2[nH]1)Nc1nncs1 [compound 197]", "quantity_measured": "[…]. anthracis", "measured_number": 34}
{"molecule": "CSc1ccccc1NC(=S)Nc1cccnc1 [compound 224]", "quantity_measured": "[…]. anthracis", "measured_number": 0}
{"molecule": "O=C(/C=C/c1ccoc1)c1ccccc1O [compound 151]", "quantity_measured": "[…]. anthracis", "measured_number": 0}
